- Tested on: ENR+CD organoids (ISC to Paneth cell differentiation)
- MEASUREMENT_DESCRIPTION: Primary screen: basal (non-stimulated) lysozyme secretion LYZ.NS, 2.5-D 384-well ENR+CD organoid differentiation
- Format: cell-based, mouse
- CONDITION_INFO: primary screen, dose 0.08 uM
REPORTED_METRIC: Dose.FC.LYZ.NS (log2 fold change)
Numbers only; they are read as log2 fold change.

# input Data request, read-out Dose.FC.LYZ.NS, for CC1(C)CCC(c2ccc(Cl)cc2)=C(CN2CCN(c3ccc(C(=O)NS(=O)(=O)c4ccc(N[C@H](CCN5CCOCC5)CSc5ccccc5)c(S(=O)(=O)C(F)(F)F)c4)cc3)CC2)C1
# output 0.012

Continuing:
# input What does the data say about its Dose.FC.LYZ.NS? Entry: C=CC(=O)Nc1cccc(Nc2nc(Nc3ccc(Oc4ccnc(C(=O)NC)c4)cc3)ncc2F)c1
# output 0.075

# input Look up Dose.FC.LYZ.NS: CC[C@H](NC(=O)[C@H](C)NC)C(=O)N1C[C@@H](O)C[C@H]1Cc1c(-c2[nH]c3cc(F)ccc3c2C[C@@H]2C[C@H](O)CN2C(=O)[C@H](CC)NC(=O)[C@H](C)NC)[nH]c2cc(F)ccc12
# output 0.032

# input Return reported Dose.FC.LYZ.NS; argument: COc1ccnc2[nH]cc(C(=O)C(=O)N3CCN(C(=O)c4ccccc4)C[C@H]3C)c12
# output 0.141

# input Recorded Dose.FC.LYZ.NS for CCn1c2ccccc2c2cc(Nc3ccnc(NCCCN4CCOCC4)n3)ccc21 , please?
# output 0.177

# input Name the recorded Dose.FC.LYZ.NS for C=C[C@@]1(C)CC(=O)[C@]2(O)[C@@]3(C)[C@@H](O)CCC(C)(C)[C@@H]3[C@H](O)[C@H](OC(C)=O)[C@@]2(C)O1 .
# output −0.007

# input Consider the compound shown here: O=C1NC(=O)/C(=C/c2ccc(-c3ccc(F)cc3O)o2)S1 What is its recorded Dose.FC.LYZ.NS?
# output 0.070

----------
- System: ENR+CD organoids (ISC to Paneth cell differentiation)
- MEASUREMENT_DESCRIPTION: Primary screen: CCh-stimulated lysozyme secretion LYZ.S, 2.5-D 384-well ENR+CD organoid differentiation
- Format: cell-based, mouse
- CONDITION_INFO: primary screen, dose 0.40 uM, FC relative to plate median
Structures can show the parent of a compound that is named as a salt.
API: label(entry) gives Criterion met if the entry's Dose.FC.LYZ.S is strictly smaller than 0.02 log2 fold change; on equality or larger values it gives Criterion not met.

Take a look at these entries with their results.
# input Quick check: does CNC(=O)c1cc(Oc2ccc(NC(=O)Nc3ccc(Cl)c(C(F)(F)F)c3)cc2)ccn1 have Dose.FC.LYZ.S under 0.02 log2 fold change?
# output Criterion not met

# input Check if Dose.FC.LYZ.S falls below 0.02 log2 fold change for O=C(NNc1nc2cc(F)ccc2n2cccc12)c1cnccn1 .
# output Criterion met

# input Please check: Dose.FC.LYZ.S for C#CCC(Cc1cnc2nc(N)nc(N)c2n1)c1ccc(C(=O)N[C@@H](CCC(=O)O)C(=O)O)cc1 (some centres unmarked) [Pralatrexate] , strictly under 0.02 log2 fold change or not?
# output Criterion met

# input Hello, is Dose.FC.LYZ.S of the following compound strictly smaller than 0.02 log2 fold change? COc1ccc(C(=O)Nc2sc3c(c2C(N)=O)CCCC3)cc1OC
# output Criterion not met

# input Given Cc1[nH]c(/C=C2\C(=O)Nc3ccc(S(=O)(=O)N(C)c4cccc(Cl)c4)cc32)c(C)c1C(=O)N1CCN(C)CC1 , is recorded Dose.FC.LYZ.S strictly lower than 0.02 log2 fold change?
# output Criterion not met

# input Dose.FC.LYZ.S under 0.02 log2 fold change? Item: O=C(Nc1ccccc1Br)N[C@@H]1CCN(c2ccc(C(F)(F)F)cn2)C1
# output Criterion not met

***
# input Is it true that Dose.FC.LYZ.S reported for CN(C)CCc1c[nH]c2ccc(Cn3cncn3)cc12 [Rizatriptan Benzoate] is less than 0.02 log2 fold change?
# output Criterion met

# input Determine if Cc1ccc(S(=O)(=O)Cc2nc(-c3ccc(C(=O)NCc4cccnc4)cc3)oc2C)cc1 shows Dose.FC.LYZ.S strictly lower than 0.02 log2 fold change.
# output Criterion met

# input Dose.FC.LYZ.S under 0.02 log2 fold change? Item: CN1CCC(CNc2ccc3ncc(-c4cccc(OC(F)(F)F)c4)n3n2)CC1 [SGI-1776free base]
# output Criterion not met

# input is_below(Dose.FC.LYZ.S, 0.02 log2 fold change) for Cc1nn(-c2ccccc2)c(C)c1/C=N/N1CCN(Cc2ccccc2)CC1 ?
# output Criterion not met

# input Consider CCn1c(N)c(C(=O)NC)c(=O)c2ccc(C#C[C@@](C)(O)COC)nc21 . Does its Dose.FC.LYZ.S lie strictly below 0.02 log2 fold change?
# output Criterion not met

# input A record lists CC(=O)OCC(=O)NCCCOc1cccc(CN2CCCCC2)c1 [Roxatidine Acetate HCl] . Is its Dose.FC.LYZ.S below 0.02 log2 fold change?
# output Criterion not met
